# Tested on: RXF 393
# procedure-text: NCI tumour cell line growth inhibition, 48 h
Active and inactive are the calls of the source. Cut-off read from the data, not from the text of the source: active = GI50 up to about 1.1 µM and inactive = higher.
// classify into active, inactive

The examples below pair each entry with its known result.
CC(=O)c1cccc(Nc2c3ccccc3nc3occc23)c1
active
Cc1cnc2[nH]c(-c3ccccc3)cc(=O)c2c1
active
O=c1[nH]c(Cc2ccccc2)nc2c1sc1nc3ccccc3n12
inactive
CC(=O)C1(O)CC2(c3ccccc3)C(=O)C1(c1ccccc1)C(c1ccccc1)=C2c1ccccc1 (configuration not stated)
inactive
CCOP(=O)(OCC)C1CC(C)OC1=O (configuration not stated)
inactive
O=[N+]([O-])c1cc(Br)cc2cc(Cl)cnc12
inactive

I'd appreciate the recorded outcome for CC1CC2OC(=N)C1(C#N)C2(C#N)C#N (configuration not stated) from this test.
inactive

Identify the outcome logged in this assay for the molecule shown: CC(C)(C)c1cc2ccc(C(N)=O)cc2c(=O)[nH]1
inactive

Which result was noted for this molecule in the test: CCc1cc2c(oc3cc4ccccc4cc32)c(=O)[nH]1
inactive

Any idea what this test logged for O=c1[nH]c(=O)n(CCOc2ccccc2)cc1Nc1ccccc1 ?
inactive

Called result for Clc1ccc(C2=NN(c3ccccc3)C3c4cc(Br)ccc4OCC23)cc1 (configuration not stated)
inactive

Kindly provide the recorded test outcome for the following molecule: O=C(/C=C/c1ccsc1)c1ccco1
inactive

---

# System: HT-29
# procedure-text: NCI tumour cell line growth inhibition, 48 h
Active and inactive are the calls of the source. Cut-off read from the data, not from the text of the source: active = GI50 up to about 1.1 µM and inactive = higher.
Give one outcome, nothing more. List: 1 for active, 0 for inactive

Query: recorded result category for O=C1c2cccnc2-c2nccc3c2c1nc1ccc(Br)cc13 in this test
1

Would you mind telling me which call this test gave CC(C)N1CN(C(C(=O)N[C@@H]2C(=O)N3C2SC(C)(C)C3C(=O)O)c2ccc(O)cc2)CSC1=S (stereo partly specified) ?
0

Could you check what this test reported for CN(C)CCNC(=O)c1cccc2c1Nc1ccccc1S2 ?
0

I'd appreciate the recorded outcome for CCOC(=O)NC(=O)c1cn(C2CCCCC2)c(=O)n(C)c1=O from this test.
0

Hi, sorry to bother you, what did the test record for Nc1ccc(S2(c3ccc(N)cc3)C=C(c3ccccc3)C(c3ccccc3)=C2)cc1 ?
0

What outcome does the record of this test show for O=S1(=O)NN=C(NCc2ccc(Cl)c(Cl)c2)c2ccccc21 ?
0

---

# Test system: SF-295
# procedure-text: NCI tumour cell line growth inhibition, 48 h
Calls of active or inactive are those of the source. Cut-off read from the data, not from the text of the source: active = GI50 up to about 1.1 µM and inactive = higher.
I'd appreciate it if you could supply GI50 values for the items below.

N#CC(NNC(=O)Cc1ccccc1)c1cccc(O)c1 (stereo unspecified)
> 100 µM (inactive)
CC(C)OCC(O)COc1cc(=O)oc2ccccc12 (stereo unspecified)
> 100 µM (inactive)
CN(C)c1ccc(/C=c2/c3ccccc3n3c2cc(C24CC5CC(CC(C5)C2)C4)[n+]3C)cc1
0.32 µM (active)
O=C(NNCc1ccc(Cl)cc1)Nc1cccc2ccccc12
82 µM (inactive)
O=c1[nH]c(Cc2ccccc2)nc2c1sc1nc3ccccc3n12
> 100 µM (inactive)

For every listed record, write down its GI50.
1. COc1cccc2c(=O)oc(-c3ccccc3C)nc12
2. CC(C)OP(=O)(OC(C)C)C(C(C)C)N(C)/C(N)=N\C1=NC(C(F)(F)F)(C(F)(F)F)N=C(C(C(F)(F)F)C(F)(F)F)O1 (stereo unspecified)
3. CC(Oc1ccccc1Cl)C(=O)NN1C(=O)CC(=O)N(c2ccc(Cl)cc2)C1=S (stereo unspecified)
4. N=NCC(=O)OC(COCc1ccccc1)COCc1ccccc1
5. CCN(CC)CCN(/C(=N/c1ccccc1)N1CCCCC1)c1ccccc1
6. Cc1ccc2nc(C(C)C)c(=O)[nH]c2c1

1. 42.6 µM (inactive)
2. 3.66 µM (inactive)
3. 44.1 µM (inactive)
4. 95.5 µM (inactive)
5. 3.62 µM (inactive)
6. 71 µM (inactive)

---

# Tested on: CAKI-1
# procedure-text: NCI tumour cell line growth inhibition, 48 h
Activity calls are given as the source filed them. Rule as the data show it: active = GI50 up to about 1.1 µM and inactive = higher.
Permitted responses: true (1) for active, false (0) for inactive

Please review the following examples before continuing.
CCC(O)c1ccc(/N=C/c2ccccc2O)cc1 (configuration not stated)
false (0)
COc1ccc(C2c3cc4c(cc3OC(Nc3ccccc3)C2C)OCO4)cc1 (configuration not stated)
false (0)
[O-][n+]1c2ccccc2[n+]([O-])c2cc(Br)ccc21
false (0)

Recorded call for COc1ccc(Nc2nnc(CCCCCCCCc3nnc(Nc4ccc(OC)cc4)o3)o2)cc1 ?
false (0)

Tell me the recorded outcome of this test for COc1ccc(CCN2CCOCC2)cc1 .
false (0)

---

Exercise: for every item that follows, state its recorded GI50.
# System: NCI-H23
# procedure-text: NCI tumour cell line growth inhibition, 48 h
Calls of active or inactive are those of the source. No stated cut-off is given here; in the data, active = GI50 up to about 1.1 µM and inactive = higher.

Please review the entries below; each comes with its answer.
OCC1OC(n2cnc3c2NC=NC[C@H]3O)CC1O (stereo not given in full)
486 µM (inactive)
COc1c(OC)c(OC)c2c(=O)cc(-c3ccc(OC(C)C)cc3)oc2c1OC
27.6 µM (inactive)
Cc1c(C)c(C)n(C2OC(CO)C(O)C(O)C2O)c(=S)c1C#N (stereo not given)
> 100 µM (inactive)
COc1cc(C2c3[nH]c4ccccc4c3[C@@H](Nc3ccc(C#N)cc3)[C@H]3COC(=O)N23)cc(OC)c1O (stereo not given in full)
0.238 µM (active)

// next item, GI50 requested
Using the record for CSc1ncc2c(C#N)c3ccccn3c(=O)c2n1 , state its measured GI50.
> 100 µM (inactive)

---

# Tested on: SR
# procedure-text: NCI tumour cell line growth inhibition, 48 h
Active and inactive are the calls of the source. Cut-off read from the data, not from the text of the source: active = GI50 up to about 1.1 µM and inactive = higher.
parameter: GI50

COc1ccc(/N=C\c2ccc(N(CCC#N)CCC#N)cc2)cc1
90.8 µM (inactive)
CC1OC2OC3C(OCC(O)C3O)OC(=O)[C@]34CCC(C)(C)CC3C3=CCC5[C@@]6(C)C[C@H](O)[C@H](OC7OC(CO)C(O)C(O)C7OC7OCC(OC(=O)CC(C)(O)CC(=O)OC1C(OC1OC(CO)C(O)C(O)C1O)C2O)C(O)C7O)[C@@](C)(CO)C6CC[C@@]5(C)[C@]3(C)CC4 (some centres undefined)
7 µM (inactive)
COC(=O)C1=C(C(=O)OC)c2cc(OC)ccc2C(C(=S)N(C)C)S1 (centres undefined)
> 100 µM (inactive)

Hello, please tell me recorded GI50 for this one: O=C1C2CC=CCC2C(=O)N1n1c(Cc2ccccc2)n[nH]c1=O (centres undefined)
> 100 µM (inactive)

---

# Tested on: SK-MEL-2
# procedure-text: NCI tumour cell line growth inhibition, 48 h
Active and inactive are the calls of the source. No stated cut-off is given here; in the data, active = GI50 up to about 1.1 µM and inactive = higher.
Field: GI50. Provide a value for each of the compounds that follow.

Answered cases to consult:
CCN(CC)CCCNc1nnc(C)c2[nH]c3ccccc3c12
15.2 µM (inactive)
C=CNC(=S)n1nc(-c2ccccc2NC(=O)C(F)(F)F)c(=O)n(C(=S)NC=C)c1=S
73.3 µM (inactive)
Cc1c2cc[n+]([O-])cc2c(C)c2c1[nH]c1ccccc12
12.1 µM (inactive)

Return reported GI50 values for all items listed beneath this line.
1. CC1=C(/C=C/Cl)CC(Cl)C(C)(Cl)C1 (stereo unspecified)
2. c1ccc(CN2CCCN3CCN(CCCN(Cc4ccccc4)CC3)CC2)cc1
3. CN(C)NC1=NS(=O)(=O)c2cc3c(=O)n(C)[nH]c3cc2S1

1. > 100 µM (inactive)
2. 22.2 µM (inactive)
3. > 10 µM (inactive)

---

# Tested on: HCT-15
parameter: GI50

Below are worked cases with known answers.
CC(=O)N/N=C1\NC(=O)C[C@H]2[C@@H]3CC=C4C[C@@H](OC(C)=O)CC[C@]4(C)[C@H]3CC[C@]12C
38.2 µM
CN(C)c1ccc(/C=c2/c3ccccc3n3c2cc(C24CC5CC(CC(C5)C2)C4)[n+]3C)cc1
0.446 µM
CCCn1c(=O)c2nn3c(=O)n(CCC)c(=O)c3nn2c1=O
> 100 µM

Give me GI50 for each of these compounds, listed below.
1. CC1=C(C(=O)Nc2ccccc2)C(c2cccc3ccccc23)C(C(=O)Nc2ccccc2)=C(C)N1
2. O=C1C=C(c2c(-c3ccccc3)[nH]c3ccccc23)C(=O)N1c1ccccc1
3. O=C(O)C1C2CCC(C2)C1c1ccccc1 (centres undefined)
4. Cc1ccc(S(=O)(=O)NNC(=O)c2cc(C)ccc2NC(=O)C23CC4CC(CC(C4)C2)C3)cc1

["16.2 µM", "5.38 µM", "> 100 µM", "22.7 µM"]

// each listed compound needs a value for GI50
1. Cl/C(=C\C=N\c1ccc(I)cc1)c1ccc2ccccc2c1
2. CN(C)c1ccccc1CC(c1c[nH]c2ccccc12)c1c[nH]c2ccccc12

1: 12.6 µM; 2: 12.2 µM

---

# Tested on: SR
# procedure-text: NCI tumour cell line growth inhibition, 48 h
The source made the active and inactive calls. No stated cut-off is given here; in the data, active = GI50 up to about 1.1 µM and inactive = higher.
// one of true for active, false for inactive, no free text

For orientation, consider the following solved cases.
CN1CCCCC(C(O)(c2ccccc2)c2ccccc2)C1=O (stereo not given)
false
COc1ccc2nc3cc(Cl)ccc3c(NCCCN(Cc3cc(OC)c(OC)c(OC)c3)Cc3cc(OC)c(OC)c(OC)c3)c2c1
false
CC(C)(C)c1cc(C2NCCO2)cc(C(C)(C)C)c1O (stereo not given)
false
CC(C)OP(=O)(OC(C)C)C(C(C)C)N(C)/C(N)=N\C1=NC(C(F)(F)F)(C(F)(F)F)N=C(C(C(F)(F)F)C(F)(F)F)O1 (stereo not given)
false
COc1cc(/C=C/c2sc3ccccc3[n+]2C)ccc1N(C)C
false

Check the results log: what was the call for C/C=C(\C)CC/C=C/CO[Si](C)(C)C(C)(C)C ?
false

Test call for this compound, please: COc1c(OC)c(OC)c2c(=O)cc(-c3ccc(OC(C)C)cc3)oc2c1OC
true

What classification did O=c1[nH]c(Cc2ccccc2)nc2c1sc1nc3ccccc3n12 end up with in this test?
false

Please state the recorded outcome for this compound: CC(=O)c1cccc(Nc2c3ccccc3nc3occc23)c1
true

Assay result, entry COC(=O)c1cc(C#N)[nH]c1-c1ccc(C)s1 — outcome?
false
